B1: NP_006221.1 (parent)
chain: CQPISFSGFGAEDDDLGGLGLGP

variants of: B1; test: protein stability index of a GFP-peptide fusion (GPS, HEK-293T) (PSI 1-6); higher = more stable; conditions: c terminus: native;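 also: lentivirally expressed fusion library, cells FACS-sorted into six equal-sized GFP/DsRed ratio bins, PSI computed from sequencing read fractions per bin weighted by bin number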
ASSAY_METRIC: protein stability index

* G10R | 2.21
* G17R | 1.52
* G10I | 2.08
* Q2V | 1.98
* D15E | 2.15
* I4G | 2.29
* C1F | 2.6
* D14Q | 2.11
* S7P | 4.14
* G10C | 2.04
* D13Y | 2.02
* G22Y | 2.59
* I4K | 2.05
* G10K | 1.96
* L16Q | 2.27
* P23V | 3.45
* S7N | 3.37
* P3N | 2.2
* D14H | 2.27
* G22T | 2.22
* C1S | 2.17
* G20Q | 2.69
